Cited source for all entries: paper PMC9482650

Reported pKd values for a set of binders
Biological target: DLG1_2, Q12959
Sequence (Q12959 314-412): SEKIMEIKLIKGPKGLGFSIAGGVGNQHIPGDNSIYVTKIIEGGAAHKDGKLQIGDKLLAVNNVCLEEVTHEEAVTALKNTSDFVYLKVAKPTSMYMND
Assay: holdup assay
Design: key: below the threshold = too weak to quantify, mostly under pKd 3.1 to 4
Details: plain residues with an end cap or a label only (N-terminal biotin on a linker: ttds)
Form rule: numeric answer, no unit written next to it.

Look over these answered cases.
* DPRNTQTSQI [ABRAXAS2, Q15018] | 3.84
* LCALPKVTTV [AGMAT, Q9BSE5] | 5.87
* GGPKEEESPV [SLC16A1, P53985] | 3.56

Please find the next binder below.
What value of pKd has been reported for the following binder? PKRPFVESNV [TANC2, Q9HCD6]
4.65
